Data origin, for the record: paper PMC8205030

Assay name: Aqueous solubility (saturation shake-flask, UV)
Type: physicochemical
Conditions: aqueous buffer, thermodynamic from solid, pH 7.0 phosphate buffer, room temperature
# maps each entry to its log10 of solubility at 48 h
Endpoint name: log10 of solubility at 48 h (log10 of the value in µg/mL)

* COc1ccc(S(=O)(=O)Nc2cc(OC)c(OC)cc2Br)cc1 | 1.34
* COc1ccc(S(=O)(=O)Nc2ccc(OC)c(OC)c2)cc1 | 1.91
* COc1ccc(S(=O)(=O)N(C)c2cc(OC)c(OC)cc2Br)cc1 | 1.79
* CCN(c1cc(OC)c(OC)cc1Br)S(=O)(=O)c1ccc(OC)cc1 | 1.41
* COc1ccc(S(=O)(=O)N(CC#N)c2cc(OC)c(OC)cc2Br)cc1 | 1.11
* COc1ccc(S(=O)(=O)Nc2cc(OC)ccc2OC)cc1 | 1.11
* COc1ccc(S(=O)(=O)N(CC#N)c2cc(OC)c(Br)cc2OC)cc1 | 0.00
* COc1ccc(S(=O)(=O)Nc2cc(OC)c(Br)cc2OC)cc1 | 0.95
* COc1ccc(S(=O)(=O)N(C)c2cc(OC)c(OC)cc2OC)cc1 | 2.20
* COc1ccc(S(=O)(=O)N(C)c2ccc(OC)c(OC)c2)cc1 | 1.85
* COc1ccc(S(=O)(=O)Nc2cc(OC)c(OC)cc2OC)cc1 | 2.33
* CCN(c1cc(OC)c(OC)cc1OC)S(=O)(=O)c1ccc(OC)cc1 | 2.09
* COc1ccc(S(=O)(=O)N(C)c2cc(OC)c(Br)cc2OC)cc1 | 0.00
* COc1ccc(S(=O)(=O)N(CC#N)c2cc(OC)c(OC)cc2OC)cc1 | 1.18
* COc1ccc(S(=O)(=O)N(C)c2cc(OC)ccc2OC)cc1 | 1.40
* COc1ccc(S(=O)(=O)N(C)c2cc(OC)cc(OC)c2)cc1 | 1.54
